B1: tRNA (parent)
chain: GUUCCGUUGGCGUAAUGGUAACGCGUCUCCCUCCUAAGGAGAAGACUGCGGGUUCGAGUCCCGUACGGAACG

Variants of: B1
Experiment: yeast fitness relative to wild type (ratio to wild type); higher = fitter; tRNA-Arg(CCU), competitive growth, 37 C, YPD
Fewer inactive variants are shown than the library holds.
measured.parameter: yeast fitness

{"mutation.descriptor": "G9A U26G A69G A70C", "censoring.operator": "≤", "quantitative.readout": 0.5}
{"mutation.descriptor": "U19A C29G C46A G68C", "censoring.operator": "≤", "quantitative.readout": 0.5}
{"mutation.descriptor": "A42G C61U", "censoring.operator": "=", "quantitative.readout": 0.853}
{"mutation.descriptor": "A42C G63C A69C", "censoring.operator": "≤", "quantitative.readout": 0.5}
{"mutation.descriptor": "U2G U54G", "censoring.operator": "≤", "quantitative.readout": 0.5}
{"mutation.descriptor": "C4G U13A C33G A36G", "censoring.operator": "≤", "quantitative.readout": 0.5}
{"mutation.descriptor": "G25A A69U", "censoring.operator": "=", "quantitative.readout": 1.04}
{"mutation.descriptor": "U8C G38C U64A C66U", "censoring.operator": "≤", "quantitative.readout": 0.5}
{"mutation.descriptor": "G6A U8A G44C A57U", "censoring.operator": "≤", "quantitative.readout": 0.5}
{"mutation.descriptor": "A36G A40G", "censoring.operator": "=", "quantitative.readout": 1.01}
{"mutation.descriptor": "C5G U13G C22G C29G A40U U54C C61G", "censoring.operator": "=", "quantitative.readout": 0.567}
{"mutation.descriptor": "A15G C34U A36G", "censoring.operator": "=", "quantitative.readout": 0.563}
{"mutation.descriptor": "C4A A21G C60U", "censoring.operator": "=", "quantitative.readout": 0.544}
{"mutation.descriptor": "U8A A20U C34U A45C", "censoring.operator": "=", "quantitative.readout": 0.567}
{"mutation.descriptor": "G25A U53C", "censoring.operator": "=", "quantitative.readout": 0.819}
{"mutation.descriptor": "C5G A14U C24G A70U", "censoring.operator": "≤", "quantitative.readout": 0.5}
{"mutation.descriptor": "C30A C49A C66U", "censoring.operator": "≤", "quantitative.readout": 0.5}
{"mutation.descriptor": "A15G A65G A70C", "censoring.operator": "=", "quantitative.readout": 0.714}
{"mutation.descriptor": "C31U G41C A43C", "censoring.operator": "=", "quantitative.readout": 0.722}
{"mutation.descriptor": "G12U C60G", "censoring.operator": "≤", "quantitative.readout": 0.5}
{"mutation.descriptor": "A15U C24U A40U G41C U64C", "censoring.operator": "=", "quantitative.readout": 0.647}
{"mutation.descriptor": "C22G U32C A69U", "censoring.operator": "=", "quantitative.readout": 0.705}
{"mutation.descriptor": "U3A C27U", "censoring.operator": "=", "quantitative.readout": 0.853}
{"mutation.descriptor": "C4G A15C A57U C61G", "censoring.operator": "≤", "quantitative.readout": 0.5}
{"mutation.descriptor": "U13G C27U G44A A57U", "censoring.operator": "≤", "quantitative.readout": 0.5}
{"mutation.descriptor": "U8A G58A", "censoring.operator": "=", "quantitative.readout": 0.771}
{"mutation.descriptor": "U2G A45G", "censoring.operator": "=", "quantitative.readout": 0.869}
{"mutation.descriptor": "C5A C11U C31G A70U", "censoring.operator": "≤", "quantitative.readout": 0.5}
{"mutation.descriptor": "C4A A40G A65G", "censoring.operator": "=", "quantitative.readout": 0.533}
{"mutation.descriptor": "U7A G25C C27G C31U A45U U64C", "censoring.operator": "≤", "quantitative.readout": 0.5}
{"mutation.descriptor": "A14U A70G", "censoring.operator": "=", "quantitative.readout": 0.734}
{"mutation.descriptor": "A20G C34A G58A", "censoring.operator": "=", "quantitative.readout": 0.622}
{"mutation.descriptor": "U2G U3C A20G C33U G39A", "censoring.operator": "≤", "quantitative.readout": 0.5}
{"mutation.descriptor": "C22G C31G A36G", "censoring.operator": "=", "quantitative.readout": 0.646}
{"mutation.descriptor": "C29A C33U G67A", "censoring.operator": "≤", "quantitative.readout": 0.5}
{"mutation.descriptor": "C4G U8C G25A A42U", "censoring.operator": "≤", "quantitative.readout": 0.5}
{"mutation.descriptor": "G9A U16C A20C A40G C55U", "censoring.operator": "≤", "quantitative.readout": 0.5}
{"mutation.descriptor": "C4A C46G C62U", "censoring.operator": "=", "quantitative.readout": 0.609}
{"mutation.descriptor": "C30U A40G C49U", "censoring.operator": "=", "quantitative.readout": 0.632}
{"mutation.descriptor": "C24G A37G C61U", "censoring.operator": "≤", "quantitative.readout": 0.5}
{"mutation.descriptor": "U8A G9A G67A", "censoring.operator": "=", "quantitative.readout": 0.553}
{"mutation.descriptor": "G18C C24G A36C G38C G58C", "censoring.operator": "≤", "quantitative.readout": 0.5}
{"mutation.descriptor": "C29G G39C A65C", "censoring.operator": "=", "quantitative.readout": 0.546}
{"mutation.descriptor": "C24G C27U", "censoring.operator": "=", "quantitative.readout": 0.73}
{"mutation.descriptor": "U26A U54A C55U", "censoring.operator": "≤", "quantitative.readout": 0.5}
{"mutation.descriptor": "G39C G48C C62G", "censoring.operator": "≤", "quantitative.readout": 0.5}

Reference source for all entries: the RNAGym collection of RNA variant scans (doi:10.1126/science.aae0568)
